Entry source: PubChem BioAssay (NCI)

- Tested on: BT-549 breast
- methodNotes: NCI-60 one-dose screen, 48 h (100 = growth as untreated, 0 = no growth, -100 = all killed)
- runConditions: 10 µM
Compounds without any hit were thinned out: in the full panel of roughly 83,000, 20% have a hit. Active and inactive are the calls of the source. The calls were made as follows: active = growth percent below 10; inactive = the rest.
propertyName: growth

# compound, observedValue
rows = [
    ("COc1ccc(-c2cn[nH]c2-c2cc(OC)c(OC)c(OC)c2)cc1", "-13.8% (active)"),
    ("N=C(N)c1ccc(-c2ccc(-c3ccccc3)s2)cc1F", "-96.8% (active)"),
    ("N#CN1CC[C@H](C(=O)Nc2ncc(-c3ccncc3)s2)C1", "-14.7% (active)"),
    ("COc1c(-c2c3sc(=O)[nH]c3nc3c2c(=O)[nH]n3C(C)C)cc2c(c1OC)OCO2", "84.6% (inactive)"),
    ("COc1cc(C2c3cc4c(cc3C(O)C(CO)C2CO)OCO4)cc(OC)c1OC (stereo not given)", "58.7% (inactive)"),
    ("O=C1/C(=C/c2ccc([N+](=O)[O-])s2)Oc2ccc(Cl)cc21", "-67.1% (active)"),
    ("COc1cc([C@@H]2c3cc4c(cc3[C@H](SC(=N)N)[C@H]3COC(=O)[C@H]23)OCO4)cc(OC)c1OC", "21.7% (inactive)"),
    ("CCCCCCOc1ccc(/C=C/C(=O)c2ccc(B(O)O)cc2)cc1", "35.2% (inactive)"),
    ("N#CCC1CCCC1", "112% (inactive)"),
    ("Cc1nc(Nc2nc3ccccc3o2)nc(-c2cccc([N+](=O)[O-])c2)c1C(=O)Nc1ccc(F)c(Cl)c1", "19.4% (inactive)"),
]

----------
- System: MDA-MB-231 breast
- methodNotes: NCI-60 one-dose screen, 48 h
- runConditions: 10 µM
This is part of a sample that, as a whole, favours compounds with a hit. Of some 83,000 tested, about 20% had one in any assay. Active and inactive are the calls of the source. Rule for the calls: active = growth percent below 10; inactive = the rest.
Classes used: active, inactive

# compound, answerLabel
data = [
    ("COc1ccc(-c2nnc(COc3ccc(NC(=O)Nc4cccc(C(F)(F)F)c4)cc3F)o2)cc1", "inactive"),
    ("Cc1ccc(/C(CS(=O)(=O)c2ccc(C)cc2)=N\\O)cc1", "inactive"),
    ("C=C[C@]1(C)C=C2C(=O)[C@@]3(O)OC(=O)[C@@]4(CCCC(C)(C)[C@H]34)[C@@]2(O)CC1", "active"),
    ("FC(F)(F)c1ccc(-c2cnc(Cl)nc2NC2CCCCCC2)cc1", "inactive"),
    ("O=C(NC1CCCC1)c1ccc(N2CCC(NCc3cccc(C(F)(F)F)c3)CC2)cc1", "inactive"),
    ("NC1CCC(Nc2nc(NCc3ccc(-c4cccs4)nc3)c3ncn(C4CCCC4)c3n2)CC1 (stereo not given)", "active"),
    ("O=S(=O)(NCl)c1ccccc1", "inactive"),
    ("CC(=O)CS(C)(=O)=O", "inactive"),
    ("C#CCn1c(-c2cccc(OCCCCl)c2)nc2c1c(=O)n(C)c(=O)n2C", "inactive"),
    ("O=C(OCc1ncc(-c2ccc(C(F)(F)F)cc2)c(NC2CCCCCC2)n1)c1c(F)c(F)c(F)c(F)c1F", "inactive"),
]
